- measured-on: PDE4D2 (Homo sapiens)
- Construct: purchased BPS bioscience
- Sequence (Q08499 303-809): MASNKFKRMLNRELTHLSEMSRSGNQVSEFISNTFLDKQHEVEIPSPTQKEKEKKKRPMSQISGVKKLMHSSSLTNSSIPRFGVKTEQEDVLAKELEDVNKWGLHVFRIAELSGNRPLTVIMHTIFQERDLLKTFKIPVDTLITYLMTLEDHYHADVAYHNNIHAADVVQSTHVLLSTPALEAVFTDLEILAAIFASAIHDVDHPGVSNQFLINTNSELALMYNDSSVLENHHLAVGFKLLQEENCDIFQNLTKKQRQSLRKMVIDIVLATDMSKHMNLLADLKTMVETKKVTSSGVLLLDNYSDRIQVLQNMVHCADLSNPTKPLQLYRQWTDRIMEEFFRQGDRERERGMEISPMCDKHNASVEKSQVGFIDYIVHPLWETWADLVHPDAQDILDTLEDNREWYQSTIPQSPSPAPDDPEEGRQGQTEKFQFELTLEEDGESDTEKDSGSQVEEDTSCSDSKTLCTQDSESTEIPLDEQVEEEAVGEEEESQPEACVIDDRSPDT
- run-description: Selectivity for PDE4 enzyme isotypes, same detection method as PDE4B
- Type: biochemical
result-type: IC50 (nM)

compound="[O-][S+]1CCc2nc(N3CCC(c4ncc(Cl)cn4)CC3)nc(NC3(CO)CCC3)c21 (stereo not shown)" unit_of_measure=nM obs_value=37.1

----------
// PDE4B2 (Homo sapiens, UniProt Q07343) IC50 records
result-type: IC50

compound=O=C(O)Cc1c(F)cc(Nc2nc(N3CCC(c4ncc(Cl)cn4)CC3)nc3c2S(=O)(=O)CCC3)cc1F result_type=IC50 obs_value="1 to 20 nM"
compound="[O-][S+]1CCc2nc(N3CC4(CN(c5ncc(Cl)cn5)C4)C3)nc(NC3(CO)CCC3)c21 (stereo not shown)" result_type=IC50 obs_value="20 to 100 nM"
compound=O=C(O)Cc1ccc(Nc2nc(N3CC=C(c4ncc(Cl)cn4)CC3)nc3c2S(=O)(=O)CCC3)cc1F result_type=IC50 obs_value="< 1 nM"
compound=O=C(O)Cc1ccc(Nc2nc(N3CCN(c4ncc(Cl)cn4)CC3)nc3c2S(=O)(=O)CCC3)cc1F result_type=IC50 obs_value="1 to 20 nM"
compound="[O-][S+]1CCc2nc(N3CCN(Cc4ncc(Cl)cn4)CC3)nc(NC3(CO)CCC3)c21 (stereo not shown)" result_type=IC50 obs_value="20 to 100 nM"
compound=O=C(O)C1(c2ccc(Nc3nc(N4CCC(c5ncc(Cl)cn5)CC4)nc4c3S(=O)(=O)CCC4)cc2F)CC1 result_type=IC50 obs_value="1 to 20 nM"
compound=O=C(O)Cc1ccc(Nc2nc(N3CCC(c4ncc(Cl)cn4)CC3)nc3c2S(=O)(=O)CCC3)cc1Cl result_type=IC50 obs_value="1 to 20 nM"
compound=O=C(O)C1(c2ccc(Nc3nc(N4CCC(c5ncc(Cl)cn5)CC4)nc4c3S(=O)(=O)CCC4)cc2F)CCC1 result_type=IC50 obs_value="1 to 20 nM"
compound=O=S1(=O)CCc2nc(N3CCC(c4ncc(Cl)cn4)CC3)nc(NC3(CO)CCC3)c21 result_type=IC50 obs_value="20 to 100 nM"
compound="Cc1ccc(O)c(C(=O)NC2CCN(c3nc4c(c(NC5(CO)CCC5)n3)[S+]([O-])CC4)CC2)c1 (stereo not shown)" result_type=IC50 obs_value="1 to 20 nM"
